IC50 overview
Molecular target: GIPR (CHO-K1-hGIPR cells) (Homo sapiens)
Construct: host or cells: CHO-K1
Sequence (P48546 22-466): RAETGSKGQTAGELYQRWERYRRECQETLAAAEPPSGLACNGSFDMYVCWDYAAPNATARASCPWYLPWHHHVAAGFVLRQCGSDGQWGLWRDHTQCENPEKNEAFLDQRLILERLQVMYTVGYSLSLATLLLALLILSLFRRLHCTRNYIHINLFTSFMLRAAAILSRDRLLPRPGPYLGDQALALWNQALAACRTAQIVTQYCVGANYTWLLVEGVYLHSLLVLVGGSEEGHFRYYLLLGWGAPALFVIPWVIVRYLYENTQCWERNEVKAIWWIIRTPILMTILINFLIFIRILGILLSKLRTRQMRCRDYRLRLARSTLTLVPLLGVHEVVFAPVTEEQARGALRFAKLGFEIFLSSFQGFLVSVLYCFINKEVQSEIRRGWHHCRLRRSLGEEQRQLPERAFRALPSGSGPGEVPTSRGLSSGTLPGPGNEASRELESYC
Test: FACS binding assay
Conditions: competition with 20 nM GIP-057, 4° C., 1 hour, read-out: pIC50 Category (converted)
Protocol: In order to determine binding of compounds according to the present invention to GIPR-expressing cells, a FACS binding assay was established. […] Cells were analyzed in an Attune NxT flow cytometer. Median fluorescence intensities (MFI) of the APC/Cy5-channel were calculated by Attune NxT software. […]
*1 amine or outer side, *2 acyl side, *3 side chain or, on linkers, in order; H or OH if unused. Where a SMILES comes first, the peptide text is derived from it. Bridges are numbered along the chain shown (N, C = ends). [ ]: non-standard residue; d: D form. Trp(5-Cl) = N[C@@H](Cc1c[nH]c2ccc(Cl)cc12)C(=O)O; Pyridine(2,6-diCH2) = c1cc(C[*:1])nc(C[*:2])c1; X6 = c1cc(CSCCN[*:2])nc(C[*:1])c1; Cya = N[C@@H](CS(=O)(=O)O)C(=O)O; Hyp = O=C(O)[C@@H]1C[C@@H](O)CN1; Nphe = O=C(O)CNCc1ccccc1; Thp = NC1(C(=O)O)CCOCC1; Aib = CC(C)(N)C(=O)O

| compound | study.system | IC50 |
| --- | --- | --- |
| CC[C@H](C)[C@@H]1NC(=O)[C@H](CC(C)C)NC(=O)C(C)(C)NC(=O)[C@@H](NC(=O)[C@@H](CC(C)C)NC(=O)[C@H](CCC(=O)O)NC(=O)[C@@H]2C[C@@H](O)CN2C(=O)[C@H](Cc2c[nH]c3ccc(Cl)cc23)NC(=O)[C@H](Cc2c[nH]c3ccccc23)NC(=O)[C@H](CS(=O)(=O)O)NC(C)=O)CSCc2cccc(n2)CSCCNC1=O [GIP-179] (Ac-[Cya]W[Trp(5-Cl)][Hyp]E[dL]C[Aib]LI; linker 7-C via X6) | GIPR (CHO-K1-hGIPR cells) (Homo sapiens) | < 10 nM |

So, CC[C@H](C)[C@@H]1NC(=O)[C@H](CC(C)C)NC(=O)C2(CCOCC2)NC(=O)[C@@H](NC(=O)[C@@H](CC(C)C)NC(=O)[C@H](CCC(=O)O)NC(=O)CN(Cc2ccccc2)C(=O)[C@H](Cc2c[nH]c3ccc(Cl)cc23)NC(=O)[C@H](Cc2c[nH]c3ccccc23)NC(=O)[C@H](CC(=O)O)NC(C)=O)CSCc2cccc(n2)CSC[C@@H](C(N)=O)NC1=O [GIP-185] (Ac-DW[Trp(5-Cl)][Nphe]E[dL]C[Thp]LIC-NH2; linker 7-11 via Pyridine(2,6-diCH2)) ? Its IC50 was < 10 nM
